Give zeta (average zeta potential ± standard deviation) for every item shown.
Experiment: Liposome zeta potential, dynamic light scattering (silyl-DOTAP liposomes)
Assay type: physicochemical
Conditions: three liposome solutions, 1 mg/mL in Milli Q water, DLS
Give bare numbers, in mV.

Solved cases below.
molecule	resultValue
C[N+](C)(C)CC(COC(=O)CCCCCCC[Si](C)(C)C1CCCCC1)OC(=O)CCCCCCC[Si](C)(C)C1CCCCC1 (stereo not drawn) [8SiCy]	70
C[N+](C)(C)CC(COC(=O)CCCC[Si](C)(C)c1ccccc1)OC(=O)CCCC[Si](C)(C)c1ccccc1 (stereo not drawn) [5SiPh]	77

Item: C[N+](C)(C)CC(COC(=O)CCCCC[Si](C)(C)C1CCCCC1)OC(=O)CCCCC[Si](C)(C)C1CCCCC1 (stereo not drawn) [6SiCy] | zeta (average zeta potential ± standard deviation): 77

* * *

Experiment: Liposome zeta potential, dynamic light scattering (silyl-DOTAP liposomes)
Assay type: physicochemical
Settings: three liposome solutions, 1 mg/mL in Milli Q water, DLS
recordedMetric: zeta (average zeta potential ± standard deviation) (mV)
Numbers only, in mV.

molecule	resultValue
CCCC[Si](C)(C)CCCCCCCC(=O)OCC(C[N+](C)(C)C)OC(=O)CCCCCCC[Si](C)(C)CCCC (centres unmarked) [8Si4]	70
C[N+](C)(C)CC(COC(=O)CCCC[Si](C)(C)CCc1ccccc1)OC(=O)CCCC[Si](C)(C)CCc1ccccc1 (centres unmarked) [5Si2Ph]	76
C[N+](C)(C)CC(COC(=O)CCCCCCC[Si](C)(C)c1ccccc1)OC(=O)CCCCCCC[Si](C)(C)c1ccccc1 (centres unmarked) [8SiPh]	75
CCCCCCCCC[Si](C)(C)CCCCCCC(=O)OCC(C[N+](C)(C)C)OC(=O)CCCCCC[Si](C)(C)CCCCCCCCC (centres unmarked) [7Si9]	73

Please supply zeta (average zeta potential ± standard deviation) for each of the following items, keeping them in order.
1. C[N+](C)(C)CC(COC(=O)CCCCCCC[Si](C)(C)CCc1ccccc1)OC(=O)CCCCCCC[Si](C)(C)CCc1ccccc1 (centres unmarked) [8Si2Ph]
2. CCCCCCCC[Si](C)(C)CCCCC(=O)OCC(C[N+](C)(C)C)OC(=O)CCCC[Si](C)(C)CCCCCCCC (centres unmarked) [5Si8]
3. CCCC[Si](C)(C)CCCCCC(=O)OCC(C[N+](C)(C)C)OC(=O)CCCCC[Si](C)(C)CCCC (centres unmarked) [6Si4]

61
63
91

Please supply zeta (average zeta potential ± standard deviation) for each of the following items, keeping them in order.
1. C[N+](C)(C)CC(COC(=O)CCCC[Si](C)(C)CCCc1ccccc1)OC(=O)CCCC[Si](C)(C)CCCc1ccccc1 (centres unmarked) [5Si3Ph]
2. CCCCCC[Si](C)(C)CCCCCCCC(=O)OCC(C[N+](C)(C)C)OC(=O)CCCCCCC[Si](C)(C)CCCCCC (centres unmarked) [8Si6]
3. C[N+](C)(C)CC(COC(=O)CCCCCCC[Si](C)(C)CCCc1ccccc1)OC(=O)CCCCCCC[Si](C)(C)CCCc1ccccc1 (centres unmarked) [8Si3Ph]
4. CCCCCCCC/C=C\CCCCCCCC(=O)OCC(C[N+](C)(C)C)OC(=O)CCCCCCC/C=C\CCCCCCCC.[Cl-] (centres unmarked) [DOTAP, reference compound]
5. C[N+](C)(C)CC(COC(=O)CCCCC[Si](C)(C)c1ccccc1)OC(=O)CCCCC[Si](C)(C)c1ccccc1 (centres unmarked) [6SiPh]

78
84
91
34
81

Please supply zeta (average zeta potential ± standard deviation) for each of the following items, keeping them in order.
1. CCCCCCCC[Si](C)(C)CCCCCCCC(=O)OCC(C[N+](C)(C)C)OC(=O)CCCCCCC[Si](C)(C)CCCCCCCC (centres unmarked) [8Si8]
2. C[N+](C)(C)CC(COC(=O)CCCC[Si](C)(C)C1CCCCC1)OC(=O)CCCC[Si](C)(C)C1CCCCC1 (centres unmarked) [5SiCy]

1. 73
2. 88

* * *

Assay: Average size of liposomes made from cationic silyl lipids (Tables 1A, 1B)
Assay type: physicochemical
Conditions: Table 1B; sila-DOTMA analog liposomes
Each entry gets not met if its Avg size stays under 200 nm, and met if its Avg size is 200 nm or above.

Previously resolved entries follow.
compound	classAssignment
CCCCCC[Si](C)(C)CCCCCCCCCCOCC(C[N+](C)(C)C)OCCCCCCCCCC[Si](C)(C)CCCCCC (stereo not drawn) [10, Si, 6-DOTMA]	not met
CCCC[Si](C)(C)CCCCCCOCC(C[N+](C)(C)C)OCCCCCC[Si](C)(C)CCCC (stereo not drawn) [6, Si, 4-DOTMA]	not met
C[N+](C)(C)CC(COCCCCCCCC[Si](C)(C)c1ccccc1)OCCCCCCCC[Si](C)(C)c1ccccc1 (stereo not drawn) [8, Si, Ph-DOTMA]	met
CCCCCCCC[Si](C)(C)CCCCCCOCC(C[N+](C)(C)C)OCCCCCC[Si](C)(C)CCCCCCCC (stereo not drawn) [6, Si, 8-DOTMA]	met

Note: attention shifts to another entry.
Is Avg size at least 200 nm? Consider CCCCCCCC[Si](CCCCCCCC)(CCCCCCCC)CCCCCCCCOCC(C[N+](C)(C)C)OCCCCCCCC[Si](CCCCCCCC)(CCCCCCCC)CCCCCCCC (stereo not drawn) [8, Si, (8)3-DOTMA]
not met

* * *

Test system: RNA standard
Assay: RNA encapsulation efficiency, Quant-It RiboGreen fluorescence assay
Assay type: physicochemical
Conditions: RNA-lipid complex 10:1 wt/wt lipid/RNA, 15 min room temperature, three aliquots
recordedMetric: RNA EE (RNA encapsulation efficiency) (%)
Give bare numbers, in %.

Solved cases below.
compound	resultValue
C[N+](C)(C)CC(COC(=O)CCCCCCC[Si](C)(C)CCCc1ccccc1)OC(=O)CCCCCCC[Si](C)(C)CCCc1ccccc1 (stereo not drawn)	53
C[N+](C)(C)CC(COC(=O)CCCC[Si](C)(C)CCc1ccccc1)OC(=O)CCCC[Si](C)(C)CCc1ccccc1 (stereo not drawn)	55
C[N+](C)(C)CC(COC(=O)CCCCC[Si](C)(C)c1ccccc1)OC(=O)CCCCC[Si](C)(C)c1ccccc1 (stereo not drawn)	76
C[N+](C)(C)CC(COC(=O)CCCCCCC[Si](C)(C)CCc1ccccc1)OC(=O)CCCCCCC[Si](C)(C)CCc1ccccc1 (stereo not drawn)	56

Please supply RNA EE (RNA encapsulation efficiency) for each of the following items, keeping them in order.
1. C[N+](C)(C)CC(COC(=O)CCCC[Si](C)(C)c1ccccc1)OC(=O)CCCC[Si](C)(C)c1ccccc1 (stereo not drawn)
2. C[N+](C)(C)CC(COC(=O)CCCCC[Si](C)(C)C1CCCCC1)OC(=O)CCCCC[Si](C)(C)C1CCCCC1 (stereo not drawn)

[88, 23]

* * *

Test: Average size of liposomes made from cationic silyl lipids (Tables 1A, 1B)
Assay type: physicochemical
Details: Table 1A; liposome formulations of the cationic silyl lipid only in Milli Q purified water
Give Avg. Size for every item shown.

Solved cases below.
compound	recordedMetric	resultValue
CCCCCCCCC[Si](C)(C)CCCCCCC(=O)OCC(C[N+](C)(C)C)OC(=O)CCCCCC[Si](C)(C)CCCCCCCCC (stereo not shown)	Avg. Size	59 nm
CCCCCCCC[Si](C)(C)CCCCCCCC(=O)OCC(C[N+](C)(C)C)OC(=O)CCCCCCC[Si](C)(C)CCCCCCCC (stereo not shown)	Avg. Size	38 nm
CCCCCC[Si](C)(C)CCCCCCCC(=O)OCC(C[N+](C)(C)C)OC(=O)CCCCCCC[Si](C)(C)CCCCCC (stereo not shown)	Avg. Size	38 nm
CCCCCCCC[Si](C)(C)CCCCC(=O)OCC(C[N+](C)(C)C)OC(=O)CCCC[Si](C)(C)CCCCCCCC (stereo not shown)	Avg. Size	38 nm
C[N+](C)(C)CC(COC(=O)CCCCCCC[Si](C)(C)C1CCCCC1)OC(=O)CCCCCCC[Si](C)(C)C1CCCCC1 (stereo not shown)	Avg. Size	29 nm

Please supply Avg. Size for each of the following items, keeping them in order.
1. CCCC[Si](C)(C)CCCCC(=O)OCC(C[N+](C)(C)C)OC(=O)CCCC[Si](C)(C)CCCC (stereo not shown)
2. CCCC[Si](C)(C)CCCCCCCC(=O)OCC(C[N+](C)(C)C)OC(=O)CCCCCCC[Si](C)(C)CCCC (stereo not shown)

21 nm
24 nm

* * *

Test system: RNA standard
Test: RNA encapsulation efficiency, Quant-It RiboGreen fluorescence assay
Format: physicochemical
Details: RNA-lipid complex 10:1 wt/wt lipid/RNA, 15 min room temperature, three aliquots
recordedMetric: RNA EE (RNA encapsulation efficiency)

Solved cases below.
compound	resultValue
CCCC[Si](C)(C)CCCCCC(=O)OCC(C[N+](C)(C)C)OC(=O)CCCCC[Si](C)(C)CCCC (stereo not shown)	41 ± 6%
C[N+](C)(C)CC(COC(=O)CCCC[Si](C)(C)C1CCCCC1)OC(=O)CCCC[Si](C)(C)C1CCCCC1 (stereo not shown)	85 ± 4%

Please supply RNA EE (RNA encapsulation efficiency) for each of the following items, keeping them in order.
1. CCCC[Si](C)(C)CCCCCCCC(=O)OCC(C[N+](C)(C)C)OC(=O)CCCCCCC[Si](C)(C)CCCC (stereo not shown)
2. C[N+](C)(C)CC(COC(=O)CCCC[Si](C)(C)CCCc1ccccc1)OC(=O)CCCC[Si](C)(C)CCCc1ccccc1 (stereo not shown)

1: 44 ± 7%; 2: 55 ± 3%
